Recorded values, source ChEMBL document CHEMBL4145461.

target-under-test: alpha-1 adrenergic receptor (Rattus norvegicus, UniProt P15823+P23944+P43140)
Sequence (P15823 whole entry): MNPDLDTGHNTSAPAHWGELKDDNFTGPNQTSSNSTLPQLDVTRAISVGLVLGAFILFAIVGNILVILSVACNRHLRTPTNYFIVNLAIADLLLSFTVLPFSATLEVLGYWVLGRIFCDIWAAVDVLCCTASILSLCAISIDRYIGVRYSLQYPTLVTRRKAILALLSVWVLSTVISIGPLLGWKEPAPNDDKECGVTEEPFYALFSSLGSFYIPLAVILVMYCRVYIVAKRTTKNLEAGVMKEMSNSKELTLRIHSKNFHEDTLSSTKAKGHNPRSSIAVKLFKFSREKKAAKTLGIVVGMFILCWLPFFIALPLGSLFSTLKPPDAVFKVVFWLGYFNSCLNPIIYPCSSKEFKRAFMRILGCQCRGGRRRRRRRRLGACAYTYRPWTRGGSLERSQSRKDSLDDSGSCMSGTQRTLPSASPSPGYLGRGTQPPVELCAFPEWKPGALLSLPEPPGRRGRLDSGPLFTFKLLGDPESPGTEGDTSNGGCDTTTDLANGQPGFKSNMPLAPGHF
Sequence (P23944 whole entry): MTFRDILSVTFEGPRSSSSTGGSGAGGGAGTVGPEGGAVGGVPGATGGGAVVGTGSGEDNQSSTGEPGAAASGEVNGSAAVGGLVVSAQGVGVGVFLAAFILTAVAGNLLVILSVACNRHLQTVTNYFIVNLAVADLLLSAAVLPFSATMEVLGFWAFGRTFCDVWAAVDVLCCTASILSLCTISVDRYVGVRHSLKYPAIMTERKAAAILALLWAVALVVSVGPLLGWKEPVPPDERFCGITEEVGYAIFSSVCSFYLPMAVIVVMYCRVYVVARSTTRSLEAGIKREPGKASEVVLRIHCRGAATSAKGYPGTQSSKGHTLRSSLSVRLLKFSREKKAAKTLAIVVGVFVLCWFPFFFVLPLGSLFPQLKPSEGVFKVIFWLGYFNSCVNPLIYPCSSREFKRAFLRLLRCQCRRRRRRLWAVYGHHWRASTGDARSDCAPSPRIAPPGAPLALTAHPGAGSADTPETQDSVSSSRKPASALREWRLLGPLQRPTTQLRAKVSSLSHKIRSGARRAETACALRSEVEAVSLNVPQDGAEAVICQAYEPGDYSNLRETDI
Sequence (P43140 whole entry): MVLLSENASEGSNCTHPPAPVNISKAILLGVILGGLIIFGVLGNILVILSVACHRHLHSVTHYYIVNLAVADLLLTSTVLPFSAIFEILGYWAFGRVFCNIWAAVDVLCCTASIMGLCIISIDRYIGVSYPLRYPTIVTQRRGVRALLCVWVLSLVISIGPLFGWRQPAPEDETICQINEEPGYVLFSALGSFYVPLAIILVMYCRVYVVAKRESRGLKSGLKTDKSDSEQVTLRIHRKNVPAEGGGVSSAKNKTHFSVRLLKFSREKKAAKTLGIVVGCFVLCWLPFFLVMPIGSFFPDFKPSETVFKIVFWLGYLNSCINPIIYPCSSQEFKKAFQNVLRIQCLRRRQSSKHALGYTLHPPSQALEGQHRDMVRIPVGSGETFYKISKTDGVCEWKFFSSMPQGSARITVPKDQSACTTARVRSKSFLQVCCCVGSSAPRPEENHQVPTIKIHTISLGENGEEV
method: Displacement of [3H]prazosin from rat brain alpha-1 adrenergic receptor at 1 uM after 60 mins by scintillation counting relative to control
assay-setup: rat brain alpha-1 adrenergic receptor preparation, probe [3H]prazosin
measurement-type: inhibition at 1 h, 1 µM (%)

[[record]]
smiles = "CCc1nc2c(N3CCNCC3)ccnc2n1Cc1cccc(F)c1"
measurement = 0.2

